Assay: Fragment solubility assay (quantitative 1H NMR)
Assay type: physicochemical
Conditions: NMR buffer, overnight incubation, 1H NMR quantified against 1 mM caffeine standard
API: label(entry) gives 1 (yes) if the entry's Kin. Sol. is strictly smaller than 600 µM; on equality or larger values it gives 0 (no).

INSERT INTO assay_data (compound, assigned_category) VALUES
  ('CCOc1ccc(S(=O)(=O)NCc2ccccc2)c2ccccc12 [Compound 36]', '1 (yes)'),
  ('O=S(=O)(O)c1ccc(O)c2ccccc12 [Compound 29, 1-naphthol-4-sulfonic acid]', '0 (no)'),
  ('COc1ccccc1COc1ccc(S(=O)(=O)[O-])c2ccccc12.[Na+] [Compound 39]', '1 (yes)'),
  ('O=S(=O)([O-])c1ccc(OCc2cccc(OC(F)(F)F)c2)c2ccccc12.[Na+] [Compound 42]', '1 (yes)'),
  ('CC(C)Oc1ccc(S(=O)(=O)[O-])c2ccccc12.[Na+] [Compound 30]', '0 (no)'),
  ('COc1cccc(COc2ccc(S(=O)(=O)[O-])c3ccccc23)c1.[Na+] [Compound 38]', '1 (yes)'),
  ('COc1cc(COc2ccc(S(=O)(=O)[O-])c3ccccc23)cc(OC)c1.[Na+] [Compound 40]', '1 (yes)');
